Test system: stomach ulcer
Assay: Gastrointestinal ulcerogenicity
Assay type: in vivo, Male Wistar rats
Set-up: key: ulcer score 1 to 4, 4 = most severe ulcer
Details: 64 mg/kg p.o., after 6 hours; score 1 to 4
We begin with a simple list: items and their reported Average score of stomach ulcer.
PARAMETER: Average score of stomach ulcer

[[record]]
compound = "CCCCOC(=O)C(C)c1ccc2c(c1)SCC1CCCCC1C2=O (stereo not drawn) [J]"
parameter = "Average score of stomach ulcer"
obs_value = 1.50

[[record]]
compound = "CC(C(=O)O)c1ccc2c(c1)SCC1CCCCC1C2=O (stereo not drawn) [F]"
parameter = "Average score of stomach ulcer"
obs_value = 1.67

[[record]]
compound = "CC(C(=O)OCCc1ccccn1)c1ccc2c(c1)SCC1CCCCC1C2=O (stereo not drawn) [P]"
parameter = "Average score of stomach ulcer"
obs_value = 0.50

[[record]]
compound = "CC(C(=O)OCCc1ccccc1)c1ccc2c(c1)SCC1CCCCC1C2=O (stereo not drawn) [L]"
parameter = "Average score of stomach ulcer"
obs_value = 0.67

[[record]]
compound = "CC(C(=O)OCc1ccccn1)c1ccc2c(c1)SCC1CCCCC1C2=O (stereo not drawn) [O]"
parameter = "Average score of stomach ulcer"
obs_value = 1.83

[[record]]
compound = "CCOC(=O)C(C)c1ccc2c(c1)SCC1CCCCC1C2=O (stereo not drawn) [I]"
parameter = "Average score of stomach ulcer"
obs_value = 1.00

